protocol: solvent given as SMILES
assayContext: in O
readoutLabel: absorption maximum (nm)

These recorded examples may help you get a feel for the data.
{"columns": ["smilesStr", "absorption maximum [nm]"],
 "data": [
  ["CC[N+]1(CC)CN2C(=N1)C(C(=O)O)=Cc1cc(SC)ccc12", 397],
  ["CC1=N/C(=C\\c2ccncc2)C(=O)N1C", 347],
  ["CC1=CC(C)=[N+]2C1=C(c1ccc(O)cc1)c1c(C)cc(/C=C/C=C3/N(C)c4ccccc4C3(C)C)n1[B-]2(F)F", 650],
  ["CC[n+]1nc2ccc(N(C)C)cc2c2cc(C)ccc21", 483],
  ["CN1/C(=C/C=C(/C=C/C2=[N+](C)c3ccccc3C2(C)C)c2ccc(C(F)(F)F)cc2)C(C)(C)c2ccccc21", 632],
  ["Nc1n[n+]([O-])c2ccccc2[n+]1[O-]", 457]
]}

A: c1cc(N2CCCC2)ccn1
B: CC(=O)OCOC(=O)CN(CC(=O)OCOC(C)=O)c1ccccc1OCCOc1cc(NC(=O)c2ccc3c(c2)C(=O)OC32c3cc(Cl)c(OC(C)=O)cc3Oc3cc(OC(C)=O)c(Cl)cc32)ccc1N(CC(=O)OCOC(C)=O)CC(=O)OCOC(C)=O
Qu. Looking only at measured absorption maximum, which entry is lower, A or B ? I would appreciate it if you answered with the label of your choice.
Ans. A

1: O=[N+]([O-])c1ccc[nH]1
2: C[n+]1ccc(/C=C/c2ccc(N(c3ccccc3)c3ccc(/C=C/c4cc[n+](C)cc4)cc3)cc2)cc1
Qu. Please state the entry with greater absorption maximum among 1 and 2 . # respond with the chosen item's label
Ans. 2
(2: 509 nm, 1: 350 nm)

---

protocol: solvent given as SMILES
assayContext: in ClCCl
readoutLabel: absorption maximum (nm)

{"columns": ["compound", "absorption maximum (nm)"],
 "data": [
  ["F[B-]1(F)Oc2ccccc2-c2c3c(c4c([n+]21)CCc1ccccc1-4)CCc1ccccc1-3", 347],
  ["CC1=CC(C)=[N+]2C1=C(C)c1cccn1[B-]2(F)F", 488],
  ["c1ccc(N(c2ccccc2)c2ccc(-c3ccc(-c4ccc(N(c5ccccc5)c5ccccc5)cc4)c4nsnc34)cc2)cc1", 459]
]}

A: c1ccc(N(c2ccccc2)c2ccc(-n3ccc4cc(-c5cccc6c5-c5ccccc5C6(c5ccccc5)c5ccccc5)ccc43)cc2)cc1
B: Cc1ccc(-c2c3nc(c(-c4ccc(C)cc4)c4ccc([nH]4)c(-c4ccc(OC(=O)C(C)c5cccc(C(=O)c6ccccc6)c5)cc4)c4nc(c(-c5ccc(C)cc5)c5ccc2[nH]5)C=C4)C=C3)cc1 (configuration not stated)
Qu. I'm curious, which of these has a smaller absorption maximum number: A or B ? Identify your pick by its label.
Ans. A

---

protocol: solvent given as SMILES
assayContext: in CCO
readoutLabel: absorption maximum (nm)

{"columns": ["molecule", "absorption maximum [nm]"],
 "data": [
  ["C[N+]1=C(/C=C/C2=C3Oc4c(cc5c6c4CCCN6CCC5)C(c4ccccc4C(=O)O)=C3CCC2)C(C)(C)c2ccccc21", 710],
  ["C1=C(c2ccc(-c3cccs3)s2)CCCC1", 344],
  ["c1ccc(-c2cc(-c3ccc(N(c4ccccc4)c4ccccc4)cc3)cc(-c3ccccc3)n2)cc1", 362],
  ["CC(C)(C)OC(=O)NCC(=O)OCc1ccc2c3cccc4cccc(c5cccc1c52)c43", 439],
  ["CCOC(=O)c1cc(C(=O)OCC)c2cccc(OCc3ccccc3)c2n1", 366]
]}

A: CN1C(C(=O)Nc2ccccn2)=C([O-])c2sccc2S1(=O)=O
B: CCCCCCCN1C(=CC2=C([O-])C(=Cc3sc4ccccc4[n+]3CCCCCCC)C2=C(C#N)C#N)Sc2ccccc21
Qu. Among A and B , whose measured absorption maximum is the smaller figure? I would appreciate it if you answered with the label of your choice.
Ans. A
(A: 375 nm, B: 696 nm)

The measured values listed here are drawn from the Deep4Chem optical property database.
